- Measurement Notes: Solubility of the compound in water
- Assay type: physicochemical
Each record here notes measured solubility.
Value Type: solubility (µM)

compound="C=CCNC1=C2C[C@@H](C)C[C@H](OC)[C@H](O[C@@H]3O[C@H](CO)[C@@H](O)[C@H](O)[C@H]3O)[C@@H](C)/C=C(\\C)[C@H](OC(N)=O)[C@@H](OC)/C=C\\C=C(/C)C(=O)NC(=CC1=O)C2=O (stereo in doubt)" unit=µM result_value=661
compound=C=CCNC1=C2C[C@@H](C)C[C@H](OC)[C@H](O)[C@@H](C)/C=C(\C)[C@H](OC(N)=O)[C@@H](OC)/C=C\C=C(/C)C(=O)NC(=CC1=O)C2=O unit=µM result_value=63
